All figures here come from ChEMBL document CHEMBL1909046.

assay: DRUGMATRIX: Purinergic P2X radioligand binding (ligand: [3H] alpha, beta-Methylene-ATP); assay type: cell membranes, Oryctolagus cuniculus, New Zealand albino, Urinary bladder, Membrane; conditions: Not Active = under 50% inhibition at 10 µM
quantity-name: IC50

                                item_smiles  recorded_measurement
0  C[C@@H]1C[C@H]2[C@@H]3CCC4=CC(=O)C=C[C@]4(C)[C@@]3(F)[C@@H](O)C[C@]2(C)[C@H]1C(=O)CO            Not Active
1  C[C@@H](CO)NC(=O)[C@@H]1C=C2c3cccc4[nH]cc(c34)C[C@H]2N(C)C1            Not Active
2              CCCCNc1ccc(C(=O)OCCN(C)C)cc1            Not Active
3                       CC(C)=CCC/C(C)=C/CO            Not Active
